Data origin, for the record: ChEMBL document CHEMBL5543155

test system: RAW264.7; assay: Cytotoxicity against mouse RAW264.7 cells assessed as cell destruction at 5 uM incubated for 48 hrs by MTT assay; assay type: toxicity, cell-based; details: raw264.7, 48 h
Readout name: Activity

- Compound: "Cc1cnccc1NC(=O)C([Se]c1ccccc1)C(C)(C)OCC(F)(F)F (stereo not drawn)"
  Experimental value: "Non-Toxic"
- Compound: "CC(C)(OCC(F)(F)F)C([Se]c1ccc(Br)cc1)C(=O)Nc1ccccc1 (stereo not drawn)"
  Experimental value: "Non-Toxic"
- Compound: "CC(C)(OCC(F)(F)F)C([Se]c1ccccc1)C(=O)Nc1ccccc1F (stereo not drawn)"
  Experimental value: "Non-Toxic"
